experiment: Half life in beagle dog liver S9 fraction at 1 uM in absence of NADPH by HPLC/MS analysis
property-name: half-life at 1 µM

| molecule | reported-value |
| --- | --- |
| CC(CN1CCOCC1)Nc1ccc2cc(-n3cnc4cnc5cnc(-c6ccncc6)cc5c43)ccc2n1 (racemic) | > 2 h |

----------
assay: Oral bioavailability in beagle dog at 0.3 mg/kg fasted 12 hrs prior to compound administration via cassette dosing and fed 2 hrs post dose; assay type: ADME, organism-based, Canis lupus familiaris; details: in vivo

| compound | bioavailability, % |
| --- | --- |
| CC(CN1CCOCC1)Nc1ccc2cc(-n3cnc4cnc5cnc(-c6ccncc6)cc5c43)ccc2n1 (racemic) | 61 |
